- assayed-system: EPHB1 (UniProt P54762)
- Sequence (P54762 whole entry, looked up): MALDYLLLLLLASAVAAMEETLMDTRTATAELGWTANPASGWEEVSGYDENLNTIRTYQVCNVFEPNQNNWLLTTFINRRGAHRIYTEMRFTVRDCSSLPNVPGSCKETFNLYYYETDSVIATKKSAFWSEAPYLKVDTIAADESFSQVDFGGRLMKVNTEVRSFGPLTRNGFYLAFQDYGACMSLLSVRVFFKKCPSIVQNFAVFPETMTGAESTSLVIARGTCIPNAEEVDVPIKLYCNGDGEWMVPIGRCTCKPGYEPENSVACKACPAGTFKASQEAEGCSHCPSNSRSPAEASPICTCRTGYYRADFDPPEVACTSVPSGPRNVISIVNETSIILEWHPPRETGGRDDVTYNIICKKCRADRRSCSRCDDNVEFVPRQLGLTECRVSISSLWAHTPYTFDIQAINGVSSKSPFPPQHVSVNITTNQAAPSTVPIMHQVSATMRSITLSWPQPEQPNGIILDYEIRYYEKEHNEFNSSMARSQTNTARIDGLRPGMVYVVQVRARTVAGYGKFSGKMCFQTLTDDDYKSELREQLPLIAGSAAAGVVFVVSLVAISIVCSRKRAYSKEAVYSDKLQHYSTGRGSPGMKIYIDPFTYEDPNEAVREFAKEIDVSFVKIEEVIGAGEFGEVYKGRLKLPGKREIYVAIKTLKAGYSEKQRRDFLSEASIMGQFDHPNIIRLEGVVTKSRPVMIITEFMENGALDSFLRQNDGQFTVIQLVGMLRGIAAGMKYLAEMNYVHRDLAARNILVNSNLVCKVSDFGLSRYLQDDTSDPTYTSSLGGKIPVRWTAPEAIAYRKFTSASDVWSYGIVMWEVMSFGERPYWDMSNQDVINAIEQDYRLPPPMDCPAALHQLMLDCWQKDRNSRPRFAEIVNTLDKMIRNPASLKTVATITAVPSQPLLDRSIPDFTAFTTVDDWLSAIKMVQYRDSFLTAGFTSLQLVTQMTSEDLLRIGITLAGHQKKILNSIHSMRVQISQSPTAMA
- test: phosphorylation enrichment, bacterial display (enrichment ratio); higher = better substrate or ligand; peptides without Tyr show the background;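 also: 11-residue human phosphosite peptides and single-mutation variants displayed on the E. coli surface, counted by deep sequencing, each peptide's frequency after selection divided by its frequency in the unselected input library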;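 also: frequency after pTyr selection over input frequency; kinase dosed for 20-30% of maximal phosphorylation in three min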
readout-kind: phosphorylation enrichment
Answers are plain numbers.

Worked examples follow.
INSERT INTO results (biosequence, value) VALUES
  ('NHQYDYTFDWT [CSNK1A1_Y294]', 0.606),
  ('SISLKYEGRVY [ABL1_Y167_R166K]', 0.663),
  ('AKKMKYFEGVS [PRKDC_Y682_I680M]', 0.393),
  ('AKYLGYPPPEI [KDR_Y357]', 0.374),
  ('GHLYAYDWIRI [BEST1_Y227_S231R]', 3.44);

Okay, here is my list. What is phosphorylation enrichment for each of these?
1. KNNDGYTDYAE [MCFD2_Y135_I136T]
2. LITILYIGFLG [KCNQ1_Y267_T265I]
3. RRGMPYGGLGD [TGM1_Y312_R315L]
4. NPQKSYFILLY [WAS_Y83_R86L]
5. SPPEVYAIMRG [NTRK1_Y757_C752S]
6. TGVWDYIHVVD [GALE_Y241_R239W]

Result:
0.475
0.835
0.302
0.657
1.12
0.756

Parameters: items (list). Returns: phosphorylation enrichment for each item.
1. HVSISYDIPPT [GAB1_Y307]
2. MALDIYRASYY [ALK_Y1278_R1275L]
3. KSMFVYCTPNK [ATP2A2_Y497_S495F]

Result:
1. 0.522
2. 0.594
3. 0.6

----------
- assayed-system: Fyn (UniProt P06241)
- Sequence (P06241 whole entry, looked up): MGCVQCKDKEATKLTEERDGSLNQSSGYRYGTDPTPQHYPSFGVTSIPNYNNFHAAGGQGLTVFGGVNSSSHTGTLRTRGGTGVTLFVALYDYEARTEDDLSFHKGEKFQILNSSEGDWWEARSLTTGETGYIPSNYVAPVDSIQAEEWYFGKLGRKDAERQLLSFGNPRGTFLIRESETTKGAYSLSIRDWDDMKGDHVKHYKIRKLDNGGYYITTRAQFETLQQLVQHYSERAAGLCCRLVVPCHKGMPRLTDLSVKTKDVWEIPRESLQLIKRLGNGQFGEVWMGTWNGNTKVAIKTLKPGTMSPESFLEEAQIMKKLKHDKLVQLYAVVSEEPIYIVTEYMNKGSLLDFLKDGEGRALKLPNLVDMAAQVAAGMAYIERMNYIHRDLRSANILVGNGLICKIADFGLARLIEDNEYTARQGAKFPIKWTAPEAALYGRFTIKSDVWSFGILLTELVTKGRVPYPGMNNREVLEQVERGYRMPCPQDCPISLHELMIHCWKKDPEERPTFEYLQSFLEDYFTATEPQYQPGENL
- test: phosphorylation enrichment, bacterial display (enrichment ratio); higher = better substrate or ligand; peptides without Tyr show the background
Classes (phosphorylation enrichment): bin A: < 0.4; bin B: ≥ 0.4 and < 0.5; bin C: ≥ 0.5

INSERT INTO assay_data (biosequence, class) VALUES
  ('FSDQVYRQHRK [TH_Y230_R233H]', 'bin A'),
  ('WAFNLYDINKY [KCNIP3_Y174_D179Y]', 'bin C'),
  ('EDKFMYSEFPQ [PTEN_Y240_F241S]', 'bin C'),
  ('SVMVPYEPPEV [TP53_Y220_V217M]', 'bin B');

Task: State the class of the sequence shown: PADSGYPAFLG [ATP6V1A_Y374_YF]
Result: bin C

Task: // bin(item) where item = HYPDVYAWEQL [ALX3_Y181_R183W]
Result: bin C

Task: Kindly identify the class of NPQKSYFILLY [WAS_Y83_R86L] .
Result: bin B

Task: Lab log: KSMFVYCTPNK [ATP2A2_Y497_S495F] — assign phosphorylation enrichment category
Result: bin B

Task: Category of DGTVHYVDEKG [IFT140_Y216] :
Result: bin C

----------
- assayed-system: Hck (UniProt P08631)
- Sequence (P08631 whole entry, looked up): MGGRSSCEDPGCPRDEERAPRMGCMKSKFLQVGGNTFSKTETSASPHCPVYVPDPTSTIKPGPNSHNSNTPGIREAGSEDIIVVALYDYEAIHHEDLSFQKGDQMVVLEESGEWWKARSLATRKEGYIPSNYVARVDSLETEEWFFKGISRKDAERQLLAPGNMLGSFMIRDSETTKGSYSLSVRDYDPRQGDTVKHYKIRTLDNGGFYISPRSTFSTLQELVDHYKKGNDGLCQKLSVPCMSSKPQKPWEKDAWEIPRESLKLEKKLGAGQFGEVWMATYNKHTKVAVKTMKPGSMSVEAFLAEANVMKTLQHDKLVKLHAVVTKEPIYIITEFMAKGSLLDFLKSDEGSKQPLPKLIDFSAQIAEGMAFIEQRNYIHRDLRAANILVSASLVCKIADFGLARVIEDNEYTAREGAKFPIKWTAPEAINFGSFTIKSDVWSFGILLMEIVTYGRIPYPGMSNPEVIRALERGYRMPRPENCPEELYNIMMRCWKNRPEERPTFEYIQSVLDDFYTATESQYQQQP
- test: phosphorylation enrichment, bacterial display (enrichment ratio); higher = better substrate or ligand; peptides without Tyr show the background
Recorded phosphorylation enrichment determines the group label, using label 0: < 0.5; label 1: ≥ 0.5 and < 0.6; label 2: ≥ 0.6

INSERT INTO measurements (biosequence, assayed_system, class) VALUES
  ('NPSFNYEIVNR [DYNC1H1_Y3379_YF]', 'Hck (UniProt P08631)', 'label 1'),
  ('EVRTQYEEIAQ [KRT76_Y361_A359T]', 'Hck (UniProt P08631)', 'label 1'),
  ('HELYVYKSDEN [DOCK3_Y548_C550S]', 'Hck (UniProt P08631)', 'label 2'),
  ('SSVPDYLAAVD [GLB1_Y154_D151V]', 'Hck (UniProt P08631)', 'label 1'),
  ('FTYDPYSEEEP [IL2RB_Y387_D391E]', 'Hck (UniProt P08631)', 'label 2'),
  ('RWHEGYRQTPK [CD44_Y412]', 'Hck (UniProt P08631)', 'label 0'),
  ('ISITPYPAILH [IFT80_Y588]', 'Hck (UniProt P08631)', 'label 0'),
  ('EIASHYRHLLR [ZBTB46_Y14_T11A]', 'Hck (UniProt P08631)', 'label 1'),
  ('PSAEGYQDVRD [ABLIM1_Y439]', 'Hck (UniProt P08631)', 'label 1'),
  ('VSFDEYRFRSF [CFTR_Y515_V520F_YF]', 'Hck (UniProt P08631)', 'label 0');

Task: Which bin, given its phosphorylation enrichment, does CKLCQYFLDHL [ATRX_Y1849_Y1847C_YF] occupy?
Result: label 0

Task: Could you tell me which band VDTGVYAVPPP [BCAR1_Y410_S407T] belongs to?
Result: label 2

Task: Which phosphorylation enrichment category applies to NREGVYRVFAP [TGFBI_Y537_T538R] here?
Result: label 2

Task: Where would MKKMHYVDPDR [ST3GAL5_Y99_H104R] land among the classes by reported phosphorylation enrichment?
Result: label 0

Task: Band of NYYDLYGGEKF [PTPN11_Y66_D61N] ?
Result: label 2

Task: Which class holds NVVVPYEPPEV [TP53_Y220_S215N] ?
Result: label 1

Task: Exercise: read the entry MSSHHCDFKKF [ZNF445_Y428_Y428C_YF] and state which class it falls under.
Result: label 0

Task: Lab note: sort DAVCFYRMENA [NPHS2_Y195_I192V_YF] into the matching phosphorylation enrichment band.
Result: label 2

Task: Form: Item = FIRKDYEACKA [BBS4_Y48_YF] ; Class = ?
Result: label 0

Task: Lab note: which band did AHAGEHGAEAL [HBA1_Y25_Y25H] land in?
Result: label 0

Task: Bin? RGRSTYYWPSP [GAGE12J_Y9_R13S]
Result: label 2

Task: Category of FGRTFYNQAIM [MCCC2_Y196] :
Result: label 0

Task: Class (by measured phosphorylation enrichment) for LANNEYFFRVC
Result: label 1

Task: Note: place this sequence into its band. Item: ILNANCMAKRL [GLDC_Y839_Y839C]
Result: label 0

Task: Category of VSLLPYFPAIM [IPO4_Y518_A513V] , please.
Result: label 1

Task: Class label required: FHKALYTVRSY [PDE6C_Y266]
Result: label 2

----------
- Tested on: Fer (mouse)
- test: phosphorylation enrichment, bacterial display (enrichment ratio); higher = better substrate or ligand; peptides without Tyr show the background
So basically: phosphorylation enrichment at 0.5 or higher? That is Condition met. Lower than 0.5? That is Condition not met.

Completed entries (count: 3):
INSERT INTO assay_data (biosequence, class) VALUES
  ('MACDRYVAICS [OR8D4_Y123]', 'Condition not met'),
  ('KFLENYFDLKK [MMP3_Y41_YF]', 'Condition not met'),
  ('DPLLTYLFPPK [LMNA_Y481_R482L]', 'Condition not met');

Task: Item GQSKGYRPKLY [SIPA1L3_Y1376] with phosphorylation enrichment of 0.5 or above?
Result: Condition not met

Task: Test whether the sequence RKNAKYLLKGE [CDH5_Y82] records phosphorylation enrichment of 0.5 or higher.
Result: Condition met

Task: Identify whether the reported phosphorylation enrichment of the following sequence is 0.5 or greater: CTNPQYLAAGS [RABL3_Y185_R184Q]
Result: Condition not met

----------
- System: c-Src
- test: phosphorylation enrichment, bacterial display (enrichment ratio); higher = better substrate or ligand; peptides without Tyr show the background
Rule: t for phosphorylation enrichment not less than 0.5, f for anything less.

INSERT INTO assay_data (biosequence, class) VALUES
  ('AHARMYGVLPW [PLP1_Y207_D203H]', 't'),
  ('RSRSPYSPVFR [CDK13_Y399_L403F]', 't'),
  ('VCDALYPPGPP', 'f'),
  ('RGMVMYTSKDR [ZG16B_Y136]', 't'),
  ('KGNMFYENSFA [EGFR_Y113_R108K_YF]', 'f');

Task: Record EATKVYLDDPT [G6PD_Y322_G321V] ; criterion: phosphorylation enrichment no lower than 0.5. Met?
Result: f

Task: Is it the case that DLLMQYPKAQG [FAM83C_Y600] has phosphorylation enrichment reaching or exceeding 0.5?
Result: f

Task: Dear colleague, could you confirm whether FQNGMYGLHQD [SGSH_Y89_H84Y_YF] has phosphorylation enrichment at or above 0.5?
Result: t

Task: Hi, just wondering whether IIEDPYFGNDS [ACP1_Y132_YF] shows phosphorylation enrichment of 0.5 or higher.
Result: t

Task: Please check the record FSNKLYFQLEQ [PDPR_Y109_YF] and state if its phosphorylation enrichment is at or above 0.5.
Result: t

Task: Identify whether the reported phosphorylation enrichment of the following sequence is 0.5 or greater: RWHEGYRQTPR [CD44_Y412_K417R]
Result: f

Task: Hi team, for RQNQEYEILLD [KRT39_Y379] , is the recorded phosphorylation enrichment at or above 0.5?
Result: t

Task: For this sequence, is measured phosphorylation enrichment 0.5 or higher? AEEEIYGEFEA [Src_opt_1995]
Result: t

Task: Can TNDRLYLRSLE [MTM1_Y71_Y68D] be said to have phosphorylation enrichment at or above 0.5?
Result: t

Task: Determine whether this sequence has phosphorylation enrichment no lower than 0.5: RHFTGYRIELQ [INSR_Y818]
Result: t

Task: Does EVESPYEVRDY [GIGYF2_Y1168_H1171R] have a reported phosphorylation enrichment of at least 0.5?
Result: t

Task: Please tell me: is the sequence LQTFRYHGLSM [PDHA1_Y289_H292L_YF] at or over 0.5 in terms of phosphorylation enrichment?
Result: f

Task: Has GSSEGYLHMVH [NIPBL_Y247_D246G] a recorded phosphorylation enrichment greater than or equal to 0.5?
Result: f

Task: API: above_or_equal(metric=phosphorylation enrichment, cutoff=0.5) for item HNLFSYPTKFE [MYO3A_Y1396_H1400Y_YF]
Result: t

Task: Check this sequence for phosphorylation enrichment at or above 0.5: TKEPKYEGAGS [KIAA1210_Y1615]
Result: f

Task: Hi team, for RNFDTYTAGLS [RHBDD1_Y264_YF] , is the recorded phosphorylation enrichment at or above 0.5?
Result: t

Task: Confirm if phosphorylation enrichment reported for the sequence TTKGAYSLSIR [YES1_Y194] is 0.5 or above.
Result: t

Task: Is the recorded value of phosphorylation enrichment equal to or greater than 0.5 for this sequence? HNMPIYEGFAL [ACTA1_Y168_V165M_YF]
Result: t

Task: Does MANYVYKAGPS [MAML2_Y515_M514V] have a reported phosphorylation enrichment of at least 0.5?
Result: f

Task: Given the entry LGPSDYFGEIV [PRKAR1A_Y323_A328V] , answer whether its phosphorylation enrichment meets or surpasses 0.5.
Result: t

Task: Quick check: does MGRVNYGAYIN [GLB1_Y485] have phosphorylation enrichment greater than or equal to 0.5?
Result: f

Task: Identify whether the reported phosphorylation enrichment of the following sequence is 0.5 or greater: VASMFYTLVIP [OR8K3_Y277_I275M]
Result: t

Task: Evaluate PVGVLYEVKVF [PTS_Y128_K129E_YF] : phosphorylation enrichment at minimum 0.5?
Result: t

Task: Record SFPPTYRFERG [INPPL1_Y661_YF] ; criterion: phosphorylation enrichment no lower than 0.5. Met?
Result: t

Task: Could you tell me if the measured phosphorylation enrichment of TKVVHYRKWIK [KLK2_Y249] reaches 0.5 or more?
Result: t

Task: Could you please find out whether EVRTQYEEIAQ [KRT76_Y361_A359T] has phosphorylation enrichment that meets 0.5 or exceeds it?
Result: f

Data provenance: the supplement of paper PMC10065799
